- Assayed system: Genome polyprotein (Dengue virus type 2 (strain 16681-PDK53)) (UniProt P29991)
- Sequence (P29991 whole entry, looked up): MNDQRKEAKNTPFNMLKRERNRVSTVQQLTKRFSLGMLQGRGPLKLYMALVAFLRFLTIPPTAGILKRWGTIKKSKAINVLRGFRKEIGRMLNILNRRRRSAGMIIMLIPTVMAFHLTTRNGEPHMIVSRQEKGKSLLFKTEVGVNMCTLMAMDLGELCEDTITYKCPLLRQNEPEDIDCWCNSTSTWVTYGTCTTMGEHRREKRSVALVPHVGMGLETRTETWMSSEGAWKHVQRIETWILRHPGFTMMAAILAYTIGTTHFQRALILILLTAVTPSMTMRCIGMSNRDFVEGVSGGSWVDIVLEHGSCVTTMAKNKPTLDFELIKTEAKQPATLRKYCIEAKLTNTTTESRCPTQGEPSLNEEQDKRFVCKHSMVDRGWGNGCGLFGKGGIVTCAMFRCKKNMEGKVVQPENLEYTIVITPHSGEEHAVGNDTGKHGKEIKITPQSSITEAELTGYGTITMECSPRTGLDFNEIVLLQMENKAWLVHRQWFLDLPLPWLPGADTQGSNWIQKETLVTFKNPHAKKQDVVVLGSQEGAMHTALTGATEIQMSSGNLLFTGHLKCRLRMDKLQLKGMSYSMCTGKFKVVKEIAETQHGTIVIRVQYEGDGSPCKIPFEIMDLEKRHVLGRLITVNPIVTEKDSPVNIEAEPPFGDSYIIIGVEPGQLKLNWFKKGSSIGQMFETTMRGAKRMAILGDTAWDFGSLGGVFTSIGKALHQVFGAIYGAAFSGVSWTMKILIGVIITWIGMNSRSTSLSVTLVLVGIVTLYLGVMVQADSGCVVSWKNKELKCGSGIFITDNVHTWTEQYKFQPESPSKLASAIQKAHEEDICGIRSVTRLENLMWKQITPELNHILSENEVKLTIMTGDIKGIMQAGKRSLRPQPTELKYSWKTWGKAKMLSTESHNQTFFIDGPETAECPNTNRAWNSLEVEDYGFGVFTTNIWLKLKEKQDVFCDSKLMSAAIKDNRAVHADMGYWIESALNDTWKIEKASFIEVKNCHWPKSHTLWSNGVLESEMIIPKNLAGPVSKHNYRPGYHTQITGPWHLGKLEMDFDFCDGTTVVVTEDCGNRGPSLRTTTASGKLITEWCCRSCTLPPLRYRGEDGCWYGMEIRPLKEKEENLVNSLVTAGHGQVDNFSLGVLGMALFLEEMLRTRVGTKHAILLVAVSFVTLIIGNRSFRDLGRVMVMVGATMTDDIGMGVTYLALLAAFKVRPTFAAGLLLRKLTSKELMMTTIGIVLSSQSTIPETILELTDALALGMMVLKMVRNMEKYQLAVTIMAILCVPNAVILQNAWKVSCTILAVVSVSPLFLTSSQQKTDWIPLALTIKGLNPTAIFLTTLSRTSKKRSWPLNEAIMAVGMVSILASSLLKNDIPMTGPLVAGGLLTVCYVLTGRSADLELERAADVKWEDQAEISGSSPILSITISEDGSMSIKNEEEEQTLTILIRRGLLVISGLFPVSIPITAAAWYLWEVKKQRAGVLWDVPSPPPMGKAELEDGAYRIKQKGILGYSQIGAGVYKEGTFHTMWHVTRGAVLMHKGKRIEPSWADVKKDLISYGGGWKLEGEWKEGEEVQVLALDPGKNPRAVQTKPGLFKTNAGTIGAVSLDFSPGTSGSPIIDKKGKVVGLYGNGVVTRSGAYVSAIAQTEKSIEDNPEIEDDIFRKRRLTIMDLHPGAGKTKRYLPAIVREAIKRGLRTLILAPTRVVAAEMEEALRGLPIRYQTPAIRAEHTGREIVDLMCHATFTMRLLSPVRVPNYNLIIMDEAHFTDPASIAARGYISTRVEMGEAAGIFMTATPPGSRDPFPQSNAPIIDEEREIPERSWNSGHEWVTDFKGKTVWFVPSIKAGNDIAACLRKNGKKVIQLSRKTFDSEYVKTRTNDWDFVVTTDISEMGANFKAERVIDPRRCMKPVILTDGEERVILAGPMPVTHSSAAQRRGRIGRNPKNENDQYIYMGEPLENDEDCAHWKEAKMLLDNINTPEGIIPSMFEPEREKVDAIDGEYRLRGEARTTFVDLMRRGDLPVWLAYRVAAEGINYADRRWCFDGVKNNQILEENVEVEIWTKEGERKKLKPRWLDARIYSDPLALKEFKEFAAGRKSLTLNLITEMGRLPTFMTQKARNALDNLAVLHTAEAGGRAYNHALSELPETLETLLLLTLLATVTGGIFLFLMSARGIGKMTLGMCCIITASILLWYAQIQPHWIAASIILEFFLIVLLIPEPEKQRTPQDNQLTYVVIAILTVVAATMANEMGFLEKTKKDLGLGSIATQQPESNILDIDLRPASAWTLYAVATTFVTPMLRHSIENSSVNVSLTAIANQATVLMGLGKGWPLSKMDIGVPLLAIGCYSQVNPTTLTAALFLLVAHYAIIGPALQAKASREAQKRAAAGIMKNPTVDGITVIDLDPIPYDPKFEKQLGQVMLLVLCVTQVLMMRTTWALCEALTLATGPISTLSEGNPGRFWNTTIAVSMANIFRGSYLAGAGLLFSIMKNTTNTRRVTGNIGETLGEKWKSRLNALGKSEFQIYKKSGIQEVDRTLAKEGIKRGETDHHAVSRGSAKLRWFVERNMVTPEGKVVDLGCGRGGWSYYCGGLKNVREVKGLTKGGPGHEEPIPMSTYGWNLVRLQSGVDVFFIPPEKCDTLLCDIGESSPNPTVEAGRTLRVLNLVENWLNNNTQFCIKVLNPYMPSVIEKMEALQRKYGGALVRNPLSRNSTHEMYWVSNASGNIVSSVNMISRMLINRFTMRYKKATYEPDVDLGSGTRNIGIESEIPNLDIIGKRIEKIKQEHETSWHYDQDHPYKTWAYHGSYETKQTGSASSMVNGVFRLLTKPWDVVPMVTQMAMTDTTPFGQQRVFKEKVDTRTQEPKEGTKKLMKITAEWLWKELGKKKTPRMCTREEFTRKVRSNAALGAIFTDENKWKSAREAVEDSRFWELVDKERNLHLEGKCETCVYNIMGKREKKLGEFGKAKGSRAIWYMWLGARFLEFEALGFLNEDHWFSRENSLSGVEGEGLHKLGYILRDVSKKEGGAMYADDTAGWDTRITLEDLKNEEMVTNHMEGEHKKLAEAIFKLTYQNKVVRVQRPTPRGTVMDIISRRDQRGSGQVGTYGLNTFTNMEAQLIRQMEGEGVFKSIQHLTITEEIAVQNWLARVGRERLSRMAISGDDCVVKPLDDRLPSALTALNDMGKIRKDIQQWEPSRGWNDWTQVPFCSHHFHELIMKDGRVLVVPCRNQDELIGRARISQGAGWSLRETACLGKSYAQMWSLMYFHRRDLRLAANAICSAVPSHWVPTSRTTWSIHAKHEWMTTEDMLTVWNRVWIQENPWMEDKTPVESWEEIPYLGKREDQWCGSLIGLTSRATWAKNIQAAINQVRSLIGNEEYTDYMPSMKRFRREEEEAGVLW
- Procedure text: flavivirus cap methylation enzyme inhibition – biochemical, confirmation dose response, primary screen (AID 588689)
- Test context: Dengue-2 NS5 methyltransferase capping enzyme assay, at 25 µM, hits give high values
Out of some 340,000 compounds screened, about 1,000 (0.29%) were called active. Not all results are given here. Entries with a potency or affinity are not part of this list.
Collected inhibition values appear next to each entry.
Only the number, expressed in %, is required.

- O=C(Nc1ccc(F)cc1)c1nc(S(=O)(=O)Cc2ccccc2)ncc1Cl: -51.9
- CC(=O)CCS(=O)(=O)c1ccc(Oc2ccc(S(=O)(=O)CCC(C)=O)cc2)cc1: 3.83
- O=c1[nH]c2cc([N+](=O)[O-])cc(Cl)c2c2ccccc12: 5.75
- COc1ccc(NC(=O)CCCc2nc3ccccc3c(=O)[nH]2)cc1Cl: 6.22

Given CC1CCCN(S(=O)(=O)c2ccc3[nH]c(=O)cc(C(=O)NCCCN4CCCCCC4)c3c2)C1 (stereo not given) , state its recorded inhibition.
-5.49

Another compound to check: COc1ccc(S(=O)(=O)N2CCCC2C(=O)NCc2cccs2)cc1 (stereo not given)
-17.2

What do we get for CCn1c(=S)sc2c(=O)n(-c3ccccc3)c(SCC(=O)NCc3ccco3)nc21 ?
2.42

Query COCCN1C(=O)C(=O)/C(=C(/O)c2ccc3c(c2)OCCO3)C1c1ccc(C(=O)OC)cc1 (stereo not given) next
0.56

Do the same for CC(Sc1nnc(COc2ccc(Cl)cc2)n1Cc1ccccc1)C(=O)O (stereo not given) please
0.73

Next compound up: O=C(c1ccc(F)cc1F)N1CCCc2ccccc21
-15

###

- Assayed system: Genome polyprotein (Dengue virus type 2 (strain 16681-PDK53)) (UniProt P29991)
- Procedure text: flavivirus cap methylation enzyme inhibition – biochemical, confirmation dose response, primary screen (AID 588689)
- Test context: Dengue-2 NS5 methyltransferase capping enzyme assay, at 25 µM, hits give high values
Screen size: about 340,000 compounds; about 1,000 (0.29%) were called active. A selection follows. Potency and affinity values are given separately.
Metric name: inhibition (%)
Numbers only here, please. The scale is %.

- O=C(Nc1ccccc1C(=O)O)c1ccc2c(c1)C(=O)N(c1cccc([N+](=O)[O-])c1)C2=O: 17.6

Looking for the measured inhibition of O=C(CSc1n[nH]c(-c2ccncc2)n1)Nc1ccc(Cl)c(C(=O)O)c1 , can you help?
0.89

Follow-up item: O=C(O)CCn1cc(/C=C2/NC(=S)N(c3ccccc3)C2=O)c(-c2ccccc2)n1
2.91

Could you do the same for O=C(CCn1c(=O)oc2ccc(Cl)cc21)NCCCN1CCOCC1 , please?
-12.3

###

Entries and their measured inhibition follow.
- Assayed system: Genome polyprotein (Dengue virus type 2 (strain 16681-PDK53)) (UniProt P29991)
- Procedure text: flavivirus cap methylation enzyme inhibition – biochemical, confirmation dose response, primary screen (AID 588689)
- Test context: Dengue-2 NS5 methyltransferase capping enzyme assay, at 25 µM, hits give high values
Among all 340,000 compounds or so, about 1,000 (0.29%) were called active. Only a sample is shown. Entries with a potency or affinity are not part of this list.
Write it as a number; the unit % goes unstated.

Consider the worked cases shown below.
• CCOC(=O)C1Nc2ccc(Br)cc2C2C=CCC12 (stereo not drawn) = 5.02
• O=C(Nc1cccc2ccccc12)c1cccc([N+](=O)[O-])c1 = -4.08
• CCn1c2ccccc2c2cc(NC(C)=O)ccc21 = 4.77

What inhibition value was documented for this compound, O=[N+]([O-])c1cc(C(F)(F)F)cc([N+](=O)[O-])c1NN=C1CCCCC1 ?
-139

What about this compound? COCCNC(=O)C1CC2Cn3c(nc4cc5ccccc5cc43)C2N1C (stereo not drawn)
-1.6

Entry to check: Cc1cccc(N(CC(O)CN2CCOCC2)S(=O)(=O)c2ccccc2)c1 (stereo not drawn)
0

O=C(O)C1Nc2ccc(Br)cc2C2C=CCC12 (stereo not drawn) ?
55.7

# iterate: S=C(NCCc1c[nH]c2ccccc12)NC1CC1
2.32

Entry CCOC(=O)C1Nc2ccc(C)cc2C2C=CCC12 (stereo not drawn) please
8.8

Same again, this time with COc1ccc(/C=C(/C#N)C(=O)Nc2ccccc2C)cc1C(=O)O
0

Try the compound O=C(O)c1ccccc1-c1ccccc1C(=O)Nc1cccc(-c2nc3ccccc3o2)c1
8.19

Queued: Nc1nc2c(nc(SCc3ccccc3Br)n2[C@@H]2O[C@H](CO)[C@@H](O)[C@H]2O)c(=O)[nH]1
-5.87

# iterate: CC(C)CNC(=O)C1Nc2ccc(C(F)(F)F)cc2C2C=CCC12 (stereo not drawn)
2.4

Next compound up: COc1ccc2c(c1)-c1nc(/N=C/c3ccc(O)c(OC)c3)sc1CC2
27.5

Can you check CCOC(=O)C1CCCN(C(=O)c2cn(C)c(=O)c3cc(OC)c(OC)cc23)C1 (stereo not drawn) next?
-5.65

The values you see were collected from PubChem BioAssay AID588689.
